meta.source: ChEMBL document CHEMBL1131914

Please provide measured IC50 for the entries that follow.
MEASUREMENT_TARGET: UDP-3-O-acyl-N-acetylglucosamine deacetylase (Escherichia coli K-12, UniProt P0A725)
Sequence (P0A725 whole entry): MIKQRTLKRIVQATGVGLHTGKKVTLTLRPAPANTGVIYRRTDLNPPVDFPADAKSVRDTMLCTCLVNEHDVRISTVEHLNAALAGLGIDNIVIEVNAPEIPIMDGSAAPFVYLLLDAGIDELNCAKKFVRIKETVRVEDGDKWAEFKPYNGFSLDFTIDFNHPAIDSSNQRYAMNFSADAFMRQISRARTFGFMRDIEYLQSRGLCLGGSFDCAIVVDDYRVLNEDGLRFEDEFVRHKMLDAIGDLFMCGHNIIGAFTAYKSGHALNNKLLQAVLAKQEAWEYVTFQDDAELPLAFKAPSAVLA
ASSAY_INFO: Inhibition of UDP-3-O-[R-3-hydroxymyristoyl]-GlcNAc deacetylase using direct deacetylase assay (DEACET) in Escherichia coli strain JB 1104
A number alone suffices; assume nM.

Just so you know, measured IC50 for CCCc1cc(C2=NC(C(=O)NO)CO2)cc(OC)c1O (stereo not drawn) came out at 1400

Value of IC50 reported for the molecule O=C(NO)C1COC(c2ccccc2Cl)=N1 (stereo not drawn) is 30000

Item: `CCc1ccc(C2=N[C@@H](C(=O)NO)CO2)cc1` | IC50: 600
